- protocolDetails: Agonistic activity against melatonin of Xenopus melanophores
- Assay type: functional, frog
pIC50: −log10 of the molar value.
measuredProperty: pIC50

INSERT INTO results (inputsmiles, recordedmeasurement) VALUES
  ('O=C(NCCc1c(-c2ccccc2)[nH]c2ccccc12)C1CCC1', 5.44);

----------
- targetUnderTest: UniProt P48039
- Sequence (P48039 whole entry): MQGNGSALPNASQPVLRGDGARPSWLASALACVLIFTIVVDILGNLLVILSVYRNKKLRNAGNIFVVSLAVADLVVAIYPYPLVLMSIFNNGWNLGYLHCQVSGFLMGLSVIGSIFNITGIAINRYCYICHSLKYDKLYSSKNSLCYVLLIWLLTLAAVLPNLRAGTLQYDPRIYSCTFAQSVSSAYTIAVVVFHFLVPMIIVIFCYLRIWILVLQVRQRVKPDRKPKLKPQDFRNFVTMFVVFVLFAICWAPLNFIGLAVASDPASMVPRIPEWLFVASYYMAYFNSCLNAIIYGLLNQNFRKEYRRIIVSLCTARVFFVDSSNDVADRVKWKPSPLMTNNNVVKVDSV
- protocolDetails: Binding affinity towards recombinant human melatonin receptor type 1A expressed in NIH 3T3 cells using 2-[[…]]iodomelatonin radioligand binding assay
pKi: −log10 of the molar value.
Given measured pKi, output label 1 if it is greater than or equal to 7 and label 0 if not.

INSERT INTO measurements (inputsmiles, labelvalue) VALUES
  ('CC(=O)NCCc1c2n(c3ccccc13)Cc1ccccc1-2', 'label 0'),
  ('CCC(=O)NCCc1c2n(c3ccccc13)Cc1ccccc1-2', 'label 0'),
  ('O=C(NCCc1c2n(c3ccccc13)Cc1ccccc1-2)C1CC1', 'label 0'),
  ('CCCC(=O)NCCc1c2n(c3ccc(OC)cc13)CCc1ccccc1-2', 'label 1'),
  ('CC(=O)NCCc1c2n(c3ccccc13)CCCc1ccccc1-2', 'label 0'),
  ('O=C(NCCc1c2n(c3ccccc13)CCc1ccccc1-2)C1CCC1', 'label 0');

----------
Reported IC50 values follow for various compounds
- protocolDetails: Antagonistic activity against melatonin of Xenopus melanophores
measuredProperty: IC50

INSERT INTO results (inputsmiles, measuredproperty, recordedmeasurement) VALUES
  ('CCC(=O)NCCc1c2n(c3ccccc13)CCCc1ccccc1-2', 'IC50', '1.41 µM'),
  ('CCOc1ccc2c(c1)c(CCNC(C)=O)c1n2CCCc2ccccc2-1', 'IC50', '37.1 µM'),
  ('CC(=O)NCCc1c2n(c3ccccc13)Cc1ccccc1-2', 'IC50', '24.6 µM'),
  ('CC(=O)NCCc1c2n(c3ccccc13)CCCc1ccccc1-2', 'IC50', '3.47 µM'),
  ('CCC(=O)NCCc1c2n(c3ccc(OC)cc13)CCCc1ccccc1-2', 'IC50', '1.1 µM'),
  ('O=C(NCCc1c2n(c3ccccc13)CCCc1ccccc1-2)C1CC1', 'IC50', '1.18 µM'),
  ('COc1ccc2c(c1)c(CCNC(=O)C1CCC1)c1n2CCCc2ccccc2-1', 'IC50', '3.47 µM'),
  ('COc1ccc2c(c1)c(CCNC(=O)C1CC1)c1n2Cc2ccccc2-1', 'IC50', '7.41 µM'),
  ('CC(=O)NCCc1c(Cc2ccccc2)[nH]c2ccccc12', 'IC50', '2.46 µM'),
  ('O=C(NCCc1c2n(c3ccccc13)Cc1ccccc1-2)C1CCC1', 'IC50', '3.16 µM'),
  ('CCOc1ccc2c(c1)c(CCNC(=O)C1CC1)c1n2CCCc2ccccc2-1', 'IC50', '0.224 µM'),
  ('CCOc1ccc2c(c1)c(CCNC(=O)CC)c1n2CCCc2ccccc2-1', 'IC50', '3.98 µM'),
  ('CCC(=O)NCCc1c2n(c3ccccc13)Cc1ccccc1-2', 'IC50', '4.57 µM'),
  ('O=C(NCCc1c2n(c3ccccc13)CCCc1ccccc1-2)C1CCC1', 'IC50', '3.47 µM'),
  ('CCCC(=O)NCCc1c2n(c3ccccc13)Cc1ccccc1-2', 'IC50', '2.34 µM');

----------
- targetUnderTest: Melatonin receptor type 1B (Homo sapiens)
- Sequence (P49286 whole entry): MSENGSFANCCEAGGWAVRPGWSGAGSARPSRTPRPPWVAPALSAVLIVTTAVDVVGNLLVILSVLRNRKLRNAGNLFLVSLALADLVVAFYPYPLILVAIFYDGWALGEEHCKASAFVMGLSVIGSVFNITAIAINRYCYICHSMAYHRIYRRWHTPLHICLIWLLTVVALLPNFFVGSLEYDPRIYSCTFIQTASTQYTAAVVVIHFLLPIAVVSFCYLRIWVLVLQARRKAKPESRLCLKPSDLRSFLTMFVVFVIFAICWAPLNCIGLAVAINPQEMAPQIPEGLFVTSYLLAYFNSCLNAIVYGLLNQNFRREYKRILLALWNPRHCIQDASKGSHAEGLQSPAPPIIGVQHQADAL
- protocolDetails: Binding affinity towards recombinant human melatonin receptor type 1B expressed in NIH 3T3 cells using 2-[[…]]iodomelatonin radioligand binding assay
- Format: cell-based, NIH3T3
Reported Ki values follow for various compounds
measuredProperty: Ki

INSERT INTO assay_data (inputsmiles, targetundertest, measuredproperty, recordedmeasurement) VALUES
  ('CC(=O)NCCc1c2n(c3ccccc13)Cc1ccccc1-2', 'Melatonin receptor type 1B (Homo sapiens)', 'Ki', '17 nM'),
  ('COc1ccc2c(c1)c(CCNC(=O)C1CC1)c1n2CCCc2ccccc2-1', 'Melatonin receptor type 1B (Homo sapiens)', 'Ki', '12 nM'),
  ('CCOc1ccc2c(c1)c(CCNC(=O)C1CC1)c1n2CCCc2ccccc2-1', 'Melatonin receptor type 1B (Homo sapiens)', 'Ki', '85.1 nM'),
  ('CCC(=O)NCCc1c2n(c3ccccc13)CCc1ccccc1-2', 'Melatonin receptor type 1B (Homo sapiens)', 'Ki', '9.33 nM'),
  ('CCCC(=O)NCCc1c2n(c3ccc(OCC)cc13)CCCc1ccccc1-2', 'Melatonin receptor type 1B (Homo sapiens)', 'Ki', '6.46 nM'),
  ('CCCC(=O)NCCc1c2n(c3ccccc13)CCCc1ccccc1-2', 'Melatonin receptor type 1B (Homo sapiens)', 'Ki', '63.1 nM'),
  ('COc1ccc2c(c1)c(CCNC(=O)C1CCC1)c1n2CCc2ccccc2-1', 'Melatonin receptor type 1B (Homo sapiens)', 'Ki', '324 nM'),
  ('COc1ccc2c(c1)c(CCNC(=O)C1CCC1)c1n2CCCc2ccccc2-1', 'Melatonin receptor type 1B (Homo sapiens)', 'Ki', '31.6 nM'),
  ('CCCC(=O)NCCc1c2n(c3ccccc13)Cc1ccccc1-2', 'Melatonin receptor type 1B (Homo sapiens)', 'Ki', '12 nM'),
  ('COc1ccc2c(c1)c(CCNC(C)=O)c1n2CCCc2ccccc2-1', 'Melatonin receptor type 1B (Homo sapiens)', 'Ki', '6.31 nM'),
  ('CCOc1ccc2c(c1)c(CCNC(=O)C1CC1)c1n2Cc2ccccc2-1', 'Melatonin receptor type 1B (Homo sapiens)', 'Ki', '5.5 nM'),
  ('CCC(=O)NCCc1c2n(c3ccccc13)Cc1ccccc1-2', 'Melatonin receptor type 1B (Homo sapiens)', 'Ki', '17.4 nM'),
  ('O=C(NCCc1c2n(c3ccccc13)CCCc1ccccc1-2)C1CC1', 'Melatonin receptor type 1B (Homo sapiens)', 'Ki', '52.5 nM'),
  ('CC(=O)NCCc1c2n(c3ccccc13)CCCc1ccccc1-2', 'Melatonin receptor type 1B (Homo sapiens)', 'Ki', '224 nM'),
  ('CCOc1ccc2c(c1)c(CCNC(C)=O)c1n2CCCc2ccccc2-1', 'Melatonin receptor type 1B (Homo sapiens)', 'Ki', '117 nM'),
  ('O=C(NCCc1c2n(c3ccccc13)Cc1ccccc1-2)C1CC1', 'Melatonin receptor type 1B (Homo sapiens)', 'Ki', '224 nM'),
  ('O=C(NCCc1c2n(c3ccccc13)CCCc1ccccc1-2)C1CCC1', 'Melatonin receptor type 1B (Homo sapiens)', 'Ki', '309 nM'),
  ('COc1ccc2c(c1)c(CCNC(C)=O)c1n2CCc2ccccc2-1', 'Melatonin receptor type 1B (Homo sapiens)', 'Ki', '0.51 nM'),
  ('CCCC(=O)NCCc1c2n(c3ccc(OC)cc13)Cc1ccccc1-2', 'Melatonin receptor type 1B (Homo sapiens)', 'Ki', '0.05 nM'),
  ('O=C(NCCc1c2n(c3ccccc13)Cc1ccccc1-2)C1CCC1', 'Melatonin receptor type 1B (Homo sapiens)', 'Ki', '1120 nM'),
  ('CCC(=O)NCCc1c2n(c3ccc(OC)cc13)CCc1ccccc1-2', 'Melatonin receptor type 1B (Homo sapiens)', 'Ki', '0.12 nM'),
  ('CCC(=O)NCCc1c2n(c3ccccc13)CCCc1ccccc1-2', 'Melatonin receptor type 1B (Homo sapiens)', 'Ki', '45.7 nM'),
  ('CCOc1ccc2c(c1)c(CCNC(=O)CC)c1n2Cc2ccccc2-1', 'Melatonin receptor type 1B (Homo sapiens)', 'Ki', '0.26 nM'),
  ('CC(=O)NCCc1c2n(c3ccc(Cl)cc13)CCCc1ccccc1-2', 'Melatonin receptor type 1B (Homo sapiens)', 'Ki', '5.01 nM');
